Task for the reader: assign each of the following compounds its reported CC50 at 24 h.
Experiment Notes: Cytotoxicity of lipophenols on ARPE-19 cells (MTT)
Format: cell-based
Test Parameters: human, ARPE-19 cells (retinal pigment epithelium), tested 0-160 μM, read-out: CC50 (cytotoxic concentration 50)

Query: Return the recorded CC50 at 24 h value; entry: CCCCC/C=C\C/C=C\CCCCCCCC(=O)Oc1c(-c2ccc(O)c(O)c2)oc2cc(O)cc(OC(C)C)c2c1=O [Q-3LA-5OiP]
Response: < 80 µM

Query: Return the recorded CC50 at 24 h value; entry: CC/C=C\C/C=C\C/C=C\C/C=C\C/C=C\C/C=C\CCC(=O)Oc1c(-c2ccc(O)c(O)c2)oc2cc(O)cc(OC(C)C)c2c1=O [Q-3DHA-5OiP]
Response: > 40 µM

Query: Return the recorded CC50 at 24 h value; entry: CCCCC/C=C\C/C=C\CCCCCCCC(=O)O[C@H]1Cc2c(O)cc(O)cc2O[C@@H]1c1ccc(O)c(O)c1 [C-3LA]
Response: < 160 µM

Query: Return the recorded CC50 at 24 h value; entry: O=c1c(O)c(-c2ccc(O)c(O)c2)oc2cc(O)cc(O)c12 [quercetin, reference compound]
Response: ~120 µM

Query: Return the recorded CC50 at 24 h value; entry: CC/C=C\C/C=C\C/C=C\C/C=C\C/C=C\C/C=C\CCC(=O)Oc1c(-c2ccc(O)c(O)c2)oc2cc(O)cc(O)c2c1=O [Q-3DHA]
Response: < 160 µM
